System: Phospho-Rb (Ser807/811) in OVCAR3 cells
experiment.description: Phospho-Rb expression inhibition in OVCAR3 cells quantified by In Cell Western
Format: cell-based
condition.parameters: Homo sapiens, OVCAR-3, 24 hours, read-out: OVCAR-3 pRb IC50
pIC50: −log10 of the molar value.

{"columns": ["mol.smiles", "pIC50"],
 "data": [
  ["C[C@@H]1CCCNC(=O)O[C@@H]2CC[C@@H](C2)c2cc([nH]n2)Nc2cccc(c2)O1", "< 6.60"],
  ["C[C@H]1CC[C@H](C)Oc2cncc(c2)Nc2cc(n[nH]2)[C@H]2CC[C@H](C2)OC(=O)N1", "8.00 to 8.70"],
  ["O=C1NC2CC(COc3cc(ccn3)Nc3[nH]nc(c3F)C3C[C@@H](F)[C@H](C3)O1)C2", "7.30 to 8.00"],
  ["O=C1NC2CC(COc3cc(ccn3)Nc3cc(n[nH]3)C3C[C@@H](F)[C@H](C3)O1)C2", "8.00 to 8.70"],
  ["C[C@H]1CC(F)(F)COc2cc(ccn2)Nc2cc(n[nH]2)[C@H]2CC[C@H](C2)OC(=O)N1", "8.00 to 8.70"],
  ["O=C1NC23CC(CCCc4cncc(c4)Nc4cc(n[nH]4)[C@H]4CC[C@H](C4)O1)(C2)C3", "≥ 8.70"],
  ["C[C@@H]1CCCOc2cncc(c2)Nc2cc(n[nH]2)[C@H]2CC[C@H](C2)OC(=O)N1", "8.00 to 8.70"],
  ["C[C@H]1CCCNC(=O)O[C@@H]2CC[C@@H](C2)c2cc([nH]n2)Nc2ccnc(c2)O1", "8.00 to 8.70"],
  ["O=C1N[C@H](C(F)(F)F)CCCOc2cc(ccn2)Nc2cc(n[nH]2)[C@H]2CC[C@H](C2)O1", "< 6.60"],
  ["O=C1NC2CC(/C=C/c3cc(ccn3)Nc3cc(n[nH]3)[C@H]3CC[C@H](C3)O1)C2", "≥ 8.70"],
  ["C[C@H]1NC(=O)O[C@@H]2CC[C@@H](C2)c2cc([nH]n2)Nc2ccnc(c2)OCCC1(F)F", "8.00 to 8.70"],
  ["C[C@@H]1CCC(C)(C)NC(=O)O[C@@H]2CC[C@@H](C2)c2cc([nH]n2)Nc2ccnc(c2)O1", "6.60 to 7.30"],
  ["C[C@H]1CC[C@H](C)Oc2cc(ccn2)Nc2cc(n[nH]2)[C@H]2CC[C@H](C2)OC(=O)N1", "8.00 to 8.70"],
  ["O=C1NCCCO[C@@H](C(F)(F)F)c2cc(ccn2)Nc2cc(n[nH]2)[C@H]2CC[C@H](C2)O1", "≥ 8.70"],
  ["C[C@H]1CCCOc2cc(ccn2)Nc2[nH]nc(c2F)[C@H]2CC[C@H](C2)OC(=O)N1", "7.30 to 8.00"]
]}

---

system.name: CDK9-CYCLIN T1 (Homo sapiens)
experiment.description: CDK protein kinase inhibition by ADP-Glo assay, CDK9-CYCLIN T1
Assay type: biochemical
condition.parameters: CDK2 versus CDK9; Table 18

{"columns": ["mol.smiles", "system.name", "CDK2 Fold selectivity, CDK9"],
 "data": [
  ["C[C@@H]1CC23CC(C2)(C3)NC(=O)O[C@@H]2CC[C@@H](C2)c2cc([nH]n2)Nc2ccnc(c2)O1", "CDK9-CYCLIN T1 (Homo sapiens)", "D (D, >20 and ≤50)"],
  ["C[C@H]1CC23CC(C2)(C3)NC(=O)O[C@@H]2CC[C@@H](C2)c2cc([nH]n2)Nc2ccnc(c2)O1", "CDK9-CYCLIN T1 (Homo sapiens)", "E (E, <20)"],
  ["O=C1NC23CC(C/C=C/c4cc(ccn4)Nc4cc(n[nH]4)[C@H]4CC[C@H](C4)O1)(C2)C3", "CDK9-CYCLIN T1 (Homo sapiens)", "E (E, <20)"],
  ["O=C1NC2(CCCCc3cc(ccn3)Nc3cc(n[nH]3)[C@H]3CC[C@H](C3)O1)CC2", "CDK9-CYCLIN T1 (Homo sapiens)", "D (D, >20 and ≤50)"],
  ["O=C1NC2CC3(C2)CC(C3)Oc2cc(ccn2)Nc2cc(n[nH]2)[C@H]2CC[C@H](C2)O1", "CDK9-CYCLIN T1 (Homo sapiens)", "E (E, <20)"]
]}

---

Measured pIC50, listed per entry.
system.name: CDK9-CYCLIN T1 (Homo sapiens)
experiment.description: CDK protein kinase inhibition by ADP-Glo assay, CDK9-CYCLIN T1
Format: biochemical
condition.parameters: ADP-Glo, 1000 μM ATP; Table 25; read-out: CDK9-CYCLINT1, IC50
pIC50: −log10 of the molar value.
value.type: pIC50

{"columns": ["mol.smiles", "value.type", "meas.value"],
 "data": [
  ["C[C@H]1CCCNC(=O)O[C@@H]2CC[C@@H](C2)c2cc([nH]n2)Nc2cnnc(c2)O1", "pIC50", "< 6.30"],
  ["O=C1NC2CC(/C=C/c3cc(ccn3)Nc3cc(n[nH]3)[C@H]3CC[C@H](C3)O1)C2", "pIC50", "≥ 8.00"],
  ["C[C@H]1CCCC(F)(F)c2cc(ccn2)Nc2cc(n[nH]2)[C@H]2CC[C@H](C2)OC(=O)N1", "pIC50", "7.30 to 8.00"]
]}

---

Readings of IC50 for the listed compounds
system.name: UniProt:P24941
experiment.description: CDK protein kinase inhibition by ADP-Glo assay, CDK2-CYCLIN E1
Type: biochemical
condition.parameters: ADP-Glo, 1000 μM ATP; Table 25; read-out: CDK2-CYCLINE, IC50
value.type: IC50

{"columns": ["compound", "value.type", "meas.value"],
 "data": [
  ["C[C@H]1CCCNC(=O)O[C@@H]2CC[C@@H](C2)c2cc([nH]n2)Nc2cnnc(c2)O1 [Compound 155]", "IC50", "≤ 0.01 µM"],
  ["O=C1NC2CC(/C=C/c3cc(ccn3)Nc3cc(n[nH]3)[C@H]3CC[C@H](C3)O1)C2 [Compound 172]", "IC50", "≤ 0.01 µM"],
  ["C[C@H]1CCCC(F)(F)c2cc(ccn2)Nc2cc(n[nH]2)[C@H]2CC[C@H](C2)OC(=O)N1 [Compound 166]", "IC50", "≤ 0.01 µM"]
]}

---

system.name: CDK9-CYCLIN T1 (Homo sapiens, UniProt P50750)
Sequence (P50750 whole entry): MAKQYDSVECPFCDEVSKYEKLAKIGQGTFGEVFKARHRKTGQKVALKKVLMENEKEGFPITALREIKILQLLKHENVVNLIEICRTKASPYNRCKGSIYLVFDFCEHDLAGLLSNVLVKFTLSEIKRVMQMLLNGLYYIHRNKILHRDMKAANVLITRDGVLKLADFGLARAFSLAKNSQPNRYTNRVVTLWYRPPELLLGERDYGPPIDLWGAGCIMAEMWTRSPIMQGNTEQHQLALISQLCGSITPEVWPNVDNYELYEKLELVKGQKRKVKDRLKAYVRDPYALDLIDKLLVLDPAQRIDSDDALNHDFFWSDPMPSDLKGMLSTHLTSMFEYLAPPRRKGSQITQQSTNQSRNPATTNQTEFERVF
Sequence (O60563 whole entry partner): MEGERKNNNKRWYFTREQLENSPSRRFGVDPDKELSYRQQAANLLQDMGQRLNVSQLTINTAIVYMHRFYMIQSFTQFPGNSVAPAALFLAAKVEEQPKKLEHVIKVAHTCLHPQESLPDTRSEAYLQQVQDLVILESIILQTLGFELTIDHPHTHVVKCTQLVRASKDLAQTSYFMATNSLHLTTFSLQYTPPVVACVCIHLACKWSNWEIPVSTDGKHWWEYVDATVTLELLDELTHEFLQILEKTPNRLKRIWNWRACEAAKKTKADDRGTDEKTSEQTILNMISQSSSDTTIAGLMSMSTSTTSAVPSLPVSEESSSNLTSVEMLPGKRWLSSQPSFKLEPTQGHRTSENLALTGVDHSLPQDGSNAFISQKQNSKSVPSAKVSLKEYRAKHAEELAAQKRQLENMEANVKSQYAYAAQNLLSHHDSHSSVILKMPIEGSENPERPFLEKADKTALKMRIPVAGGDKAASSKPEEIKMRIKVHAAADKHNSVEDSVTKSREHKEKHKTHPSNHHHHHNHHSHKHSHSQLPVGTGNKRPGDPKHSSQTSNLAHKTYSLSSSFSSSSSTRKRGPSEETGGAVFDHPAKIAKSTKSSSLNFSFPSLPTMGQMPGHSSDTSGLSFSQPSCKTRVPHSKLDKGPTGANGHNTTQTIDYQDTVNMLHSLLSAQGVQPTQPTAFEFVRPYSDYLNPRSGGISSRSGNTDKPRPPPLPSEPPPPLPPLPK
experiment.description: CDK protein kinase inhibition by ADP-Glo assay, CDK9-CYCLIN T1
Format: biochemical
condition.parameters: ADP-Glo, 1000 μM ATP; Table 13; read-out: CDK9-CYCLINT1, IC50
Procedure: CDK Protein Kinase Inhibition by ADP-Glo Assay This ADP-Glo assay measures ADP formed from a kinase reaction and indirectly quantifies the phosphorylation of peptide substrates by the CDK/cyclin protein complexes. […] At the end of the incubation, the reaction is quenched, and conversion is detected by luminescence using the Promega ADP-Glo™ Kinase Assay kit (catalog #V9102). […]
pIC50: −log10 of the molar value.
value.type: pIC50

{"columns": ["compound", "meas.value"],
 "data": [
  ["O=C1NC23CC(CCCc4cc(ccn4)Nc4cc(n[nH]4)[C@H]4CC[C@H](C4)O1)(C2)C3 [Compound 96]", "≥ 8.00"],
  ["C[C@H]1CCCOc2cncc(c2)Nc2cc(n[nH]2)[C@H]2CC[C@H](C2)OC(=O)N1 [Compound 119]", "6.30 to 7.00"],
  ["C[C@@H]1CCCOc2cncc(c2)Nc2cc(n[nH]2)[C@H]2CC[C@H](C2)OC(=O)N1 [Compound 120]", "7.00 to 7.30"],
  ["C[C@@H]1CCCNC(=O)O[C@@H]2CC[C@@H](C2)c2cc([nH]n2)Nc2cncc(c2)O1 [Compound 121]", "6.30 to 7.00"]
]}

---

system.name: CDK9-CYCLIN T1 (Homo sapiens)
experiment.description: CDK protein kinase inhibition by ADP-Glo assay, CDK9-CYCLIN T1
Format: biochemical
condition.parameters: CDK2 versus CDK9; Table 22

{"columns": ["mol.smiles", "CDK2 Fold selectivity, CDK9"],
 "data": [
  ["C[C@H]1Oc2cc(ccn2)Nc2cc(n[nH]2)[C@H]2CC[C@H](C2)OC(=O)N[C@H]2C[C@H]1C2", "C (C, >50 and ≤100)"],
  ["C[C@H]1CCCNC(=O)O[C@@H]2CC[C@@H](C2)c2cc([nH]n2)Nc2cccc(c2)O1", "C (C, >50 and ≤100)"],
  ["C[C@@H]1CC[C@H](C)Oc2cncc(c2)Nc2cc(n[nH]2)[C@H]2CC[C@H](C2)OC(=O)N1", "D (D, >20 and ≤50)"],
  ["C[C@H]1Oc2cncc(c2)Nc2cc(n[nH]2)[C@H]2CC[C@H](C2)OC(=O)N[C@H]2C[C@H]1C2", "D (D, >20 and ≤50)"],
  ["C[C@H]1CC[C@H](C)Oc2cncc(c2)Nc2cc(n[nH]2)[C@H]2CC[C@H](C2)OC(=O)N1", "D (D, >20 and ≤50)"]
]}
